Ref: PubChem BioAssay AID2060499

# Test system: 777334-354-R2-J4-PDC tumor spheroids with HUVEC/MSC, viability;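 also: spheroids exposed to compounds for 7 days before readout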
# measurement protocol: Anticancer human tumor 777334-354-R2-J4-PDC patient-derived pancreatic adenocarcinoma cell line growth inhibition [GQUAD]
# experimental setup: second compound 0.316 µM; first compound 1 µM; stronger effect = lower value
# Lookup of reported viability, T/C keyed by entry
Give just the numeric value; % need not be written.

O=C(NO)c1cnc(N2CCN(S(=O)(=O)c3ccc4ccccc4c3)CC2)nc1 + CN(C)c1ccc(Nc2c3ccc(NC(=O)CCN4CCCC4)cc3nc3cc(NC(=O)CCN4CCCC4)ccc23)cc1 :: 54.8
COc1ncnc(C2CC2)c1-c1ncc2cnn(Cc3ccc(-c4nc(C(F)(F)F)cn4C(C)C)cc3)c2n1 + Cc1cnc(CNC(=O)c2c(=O)c3ccc(N4CCCN(C)CC4)nc3n3c2sc2ccccc23)cn1 :: 85.8
O=c1[nH]cc(F)c(=O)[nH]1 + CN(C)c1ccc(Nc2c3ccc(NC(=O)CCN4CCCC4)cc3nc3cc(NC(=O)CCN4CCCC4)ccc23)cc1 :: 87.1
COc1cccc2c1C(=O)c1c(O)c3c(c(O)c1C2=O)CC(O)(C(=O)CO)CC3OC1CC(N)C(O)C(C)O1 (configuration not stated) + CN(C)c1ccc(Nc2c3ccc(NC(=O)CCN4CCCC4)cc3nc3cc(NC(=O)CCN4CCCC4)ccc23)cc1 :: 47.9

viability, T/C on 777334-354-R2-J4-PDC tumor spheroids with HUVEC/MSC, viability for Nc1ccn(C2OC(CO)C(O)C2(F)F)c(=O)n1 (configuration not stated) + CN(C)c1ccc(Nc2c3ccc(NC(=O)CCN4CCCC4)cc3nc3cc(NC(=O)CCN4CCCC4)ccc23)cc1 is 40.5

viability, T/C on 777334-354-R2-J4-PDC tumor spheroids with HUVEC/MSC, viability for CC1COCCN1c1cc(-c2ccnn2C)c2ccnc(-c3ccn[nH]3)c2n1 (configuration not stated) + Cc1[nH]c2ccc(F)cc2c1-c1nc2c3cccnc3c3ncccc3c2[nH]1 is 46.6

viability, T/C on 777334-354-R2-J4-PDC tumor spheroids with HUVEC/MSC, viability for C#Cc1c(F)ccc2cc(O)cc(-c3ncc4c(N5CC6CCC(C5)N6)nc(OCC56CCCN5CC(F)C6)nc4c3F)c12 (configuration not stated) + CN(C)c1ccc(Nc2c3ccc(NC(=O)CCN4CCCC4)cc3nc3cc(NC(=O)CCN4CCCC4)ccc23)cc1 is 29

viability, T/C on 777334-354-R2-J4-PDC tumor spheroids with HUVEC/MSC, viability for C=CCn1c(=O)c2cnc(Nc3ccc(N4CCN(C)CC4)cc3)nc2n1-c1cccc(C(C)(C)O)n1 + Cc1cnc(CNC(=O)c2c(=O)c3ccc(N4CCCN(C)CC4)nc3n3c2sc2ccccc23)cn1 is 39.8

viability, T/C on 777334-354-R2-J4-PDC tumor spheroids with HUVEC/MSC, viability for CC(=O)O[C@H]1C(=O)[C@@]2(C)[C@H]([C@H](OC(=O)c3ccccc3)[C@]3(O)C[C@H](OC(=O)[C@H](O)[C@@H](NC(=O)c4ccccc4)c4ccccc4)C(C)=C1C3(C)C)[C@]1(OC(C)=O)CO[C@@H]1C[C@@H]2O + Cc1[nH]c2ccc(F)cc2c1-c1nc2c3cccnc3c3ncccc3c2[nH]1 is 45.2
